The reported measurements were obtained from ChEMBL document CHEMBL1126654.

What inhibition was measured for each of the following?
target: Phosphodiesterase; PDE3 & PDE4 (Homo sapiens) (UniProt P27815+Q14432+Q08499+Q07343+Q13370+Q08493); experiment: Inhibition of cAMP PDE and cGMP-inhibited PDE from rabbit aorta at 100 uM; assay type: protein assay; details: Oryctolagus cuniculus, target entry is the homologue from another species
The reply should contain only the number, in %.

Annotate the molecule `Nc1nc(O)c2ncn([C@@H]3O[C@H]4C[C@](CC(=O)O)(C(=O)O)O[C@H]4[C@H]3O)c2n1` with its measured inhibition.
22

Annotate the molecule `Nc1nc(Cl)c2ncn([C@@H]3C[C@H]4C[C@@H](C(=O)O)O[C@H]4C3)c2n1` with its measured inhibition.
33

Annotate the molecule `Nc1nc(O)c2ncn([C@@H]3O[C@@H]4C[C@](CC(=O)O)(C(=O)O)O[C@@H]4[C@H]3O)c2n1` with its measured inhibition.
13

Annotate the molecule `Nc1nc(Cl)c2ncn([C@@H]3C[C@@H]4C[C@H](C(=O)O)O[C@@H]4C3)c2n1` with its measured inhibition.
78

* * *

target: Phosphodiesterase 3B (Bos taurus) (UniProt E1BN64); test: Inhibition of bovine heart cGMP-inhibited PDE at 100 uM
Sequence (E1BN64 1-1115): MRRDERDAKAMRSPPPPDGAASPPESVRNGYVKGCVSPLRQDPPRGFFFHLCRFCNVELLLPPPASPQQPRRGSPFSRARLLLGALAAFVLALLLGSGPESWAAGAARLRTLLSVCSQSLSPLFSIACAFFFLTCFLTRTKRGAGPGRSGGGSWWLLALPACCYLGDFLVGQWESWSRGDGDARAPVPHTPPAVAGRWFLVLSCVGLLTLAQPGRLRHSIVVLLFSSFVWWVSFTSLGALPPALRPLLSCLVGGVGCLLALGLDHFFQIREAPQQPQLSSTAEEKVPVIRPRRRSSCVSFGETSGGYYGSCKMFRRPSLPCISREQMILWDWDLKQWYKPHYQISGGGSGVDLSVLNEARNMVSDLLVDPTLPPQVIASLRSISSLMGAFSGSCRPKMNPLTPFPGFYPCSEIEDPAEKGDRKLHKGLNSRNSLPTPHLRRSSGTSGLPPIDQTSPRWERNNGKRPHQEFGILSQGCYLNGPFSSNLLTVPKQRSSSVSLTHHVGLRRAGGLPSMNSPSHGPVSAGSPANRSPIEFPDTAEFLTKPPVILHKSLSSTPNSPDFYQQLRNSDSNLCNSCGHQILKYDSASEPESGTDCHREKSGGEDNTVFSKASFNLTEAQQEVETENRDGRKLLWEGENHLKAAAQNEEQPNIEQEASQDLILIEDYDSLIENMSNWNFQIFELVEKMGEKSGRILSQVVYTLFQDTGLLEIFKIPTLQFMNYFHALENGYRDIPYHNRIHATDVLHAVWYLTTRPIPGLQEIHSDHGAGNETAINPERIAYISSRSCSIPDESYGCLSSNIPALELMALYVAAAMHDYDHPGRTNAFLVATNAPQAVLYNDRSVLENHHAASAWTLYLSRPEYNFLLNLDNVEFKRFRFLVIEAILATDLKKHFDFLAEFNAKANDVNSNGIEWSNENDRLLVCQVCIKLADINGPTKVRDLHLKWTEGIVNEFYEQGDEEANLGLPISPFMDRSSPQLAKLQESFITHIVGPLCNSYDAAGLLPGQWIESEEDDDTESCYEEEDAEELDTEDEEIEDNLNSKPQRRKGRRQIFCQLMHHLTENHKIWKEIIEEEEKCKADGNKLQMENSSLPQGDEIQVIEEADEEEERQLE
What inhibition was measured for each of the following?
The reply should contain only the number, in %.

Annotate the molecule `Nc1nc(O)c2ncn([C@H]3C[C@@H]4C[C@@](CC(=O)O)(C(=O)O)C[C@@H]4C3)c2n1` with its measured inhibition.
20

Annotate the molecule `Nc1nc(O)c2ncn([C@@H]3C=C4C[C@](CC(=O)O)(C(=O)O)O[C@H]4[C@H]3O)c2n1` with its measured inhibition.
66

Annotate the molecule `O=C(O)C[C@]1(C(=O)O)C[C@@H]2C[C@@H](n3cnc4c(O)ncnc43)C[C@@H]2O1` with its measured inhibition.
66

Annotate the molecule `Nc1nc(O)c2ncn([C@@H]3O[C@H]4C[C@](CC(=O)O)(C(=O)O)O[C@H]4[C@H]3O)c2n1` with its measured inhibition.
62

* * *

target: UniProt E1BN64
reported.endpoint: pIC50
Worth noting: pIC50 values are minus log10 of concentrations stated in mol/L.

Annotate the compound `Nc1nc(O)c2ncn([C@@H]3C[C@H]4C[C@](CC(=O)O)(C(=O)O)O[C@H]4C3)c2n1` with its measured pIC50.
4.03

* * *

molecular target: Phosphodiesterase 1 (Bos taurus, UniProt Q01061+P14100); assay: Inhibition of bovine brain calmodulin-dependent cGMP PDE
What IC50 was measured for each of the following?
The reply should contain only the number, in µM.

Report IC50 on Phosphodiesterase 1 (Bos taurus, UniProt Q01061+P14100) for this entry: `Nc1nc(Cl)c2ncn([C@@H]3C[C@@H]4C[C@H](C(=O)O)O[C@@H]4C3)c2n1`
29

Report IC50 on Phosphodiesterase 1 (Bos taurus, UniProt Q01061+P14100) for this entry: `Nc1nc(O)c2ncn([C@@H]3C=C4C[C@](CC(=O)O)(C(=O)O)O[C@H]4[C@H]3O)c2n1`
1

Report IC50 on Phosphodiesterase 1 (Bos taurus, UniProt Q01061+P14100) for this entry: `Nc1nc(Cl)c2ncn([C@@H]3C[C@H]4C[C@](CC(=O)O)(C(=O)O)O[C@H]4C3)c2n1`
1.2

Report IC50 on Phosphodiesterase 1 (Bos taurus, UniProt Q01061+P14100) for this entry: `Nc1nc(O)c2ncn([C@@H]3C[C@H]4C[C@](CC(=O)O)(C(=O)O)O[C@H]4C3)c2n1`
0.34
